These measurements were taken from patent US11028090B2.

# MEASURED TARGET: BRD4 (BD1+BD2) bromodomain (Homo sapiens (Human))
# PROTOCOL NOTES: BRD4 binding inhibition (AlphaScreen, GST-BRD4 vs tetraacetylated histone H4 peptide)
# EXPERIMENTAL CONDITIONS: GST-BRD4 (BD1+BD2) vs biotinylated acetyl-histone H4 peptide, AlphaScreen; read-out: BRD4 IC50
QUANTITY NAME: log10(IC50) (log10 of the value in nM)
Base-10 log of IC50, unit nM.

IN: Respond only with log10(IC50) recorded for COc1cc2nc(NCCCCNC(=O)C(C)(C)C)c3nnc(C)n3c2cc1C(F)(F)F
OUT: 1.30

IN: Return value of log10(IC50) for input Cc1nnc2c(NCCCCNC(=O)CC(C)C)nc3cc(NS(=O)(=O)CC(F)(F)F)ccc3n12 , no commentary.
OUT: 1.69

IN: Entry CCC(C)CC(=O)NCCCCNc1nc2c(OC)cc(OC)c(OC)c2n2c(C)nnc12 (centres unmarked) needs its log10(IC50) filled in; supply it.
OUT: 1.48

IN: Identify measured log10(IC50) associated with COc1cc2nc(NCCCCNC(=O)SC(C)C)c3nnc(C)n3c2cc1OC
OUT: 1.54

IN: Give recorded log10(IC50). COc1ccc2c(c1)nc(NCCCCNC(=O)[C@@H](NC(=O)CC(C)C)C(C)C)c1nnc(C)n12
OUT: 1.15

IN: Input CC(=O)OC(C)(C)C(=O)NCCCCNc1nc2cc(-c3nc4ccccc4n3C)ccc2n2c(C)nnc12 , output reported log10(IC50).
OUT: 1.15

IN: Answer with reported log10(IC50) of COc1ccc2c(c1)nc(NCCCCNC(=O)Oc1ccccc1)c1nnc(C)n12
OUT: 1.26

IN: Give me measured log10(IC50), please, for this molecule: COc1c(C)ccc2c1nc(NCCCCNC(=O)[C@H](O)C(C)C)c1nnc(C)n12
OUT: 1.76

IN: Name the recorded log10(IC50) of the item Cc1nnc2c(NCCCCNC(=O)c3ccccc3Cl)nc3ccccc3n12 in your answer.
OUT: 1.76

IN: Specify log10(IC50) for CCC(C)CNC(=O)CCCCNc1nc2cc(OC)c(OC)cc2n2c(C)nnc12 (centres unmarked) and stop.
OUT: 1.36

IN: Consider the molecule COc1cc2nc(NCCCCNC(=O)OCC(C)C)c3nnc(C)n3c2cc1C . State its measured log10(IC50).
OUT: 1.34

IN: Give the reported log10(IC50) for this molecule. COc1cc2nc(NCCCCNC(=O)OCC(C)C)c3nnc(C)n3c2cc1OC
OUT: 0.85

IN: Tell me log10(IC50) reported for Cc1nnc2c(NCCCCNC(=O)C(C)(C)C)nc3cc(Cl)c(Cl)cc3n12
OUT: 1.98

IN: Query log10(IC50) for COc1ccc2c(c1)nc(NCCCCNC(=O)[C@H](C(C)C)N1CCC(CCO)CC1)c1nnc(C)n12
OUT: 1.49

IN: Provide measured log10(IC50) value, entry: COc1ccc2nc(NCCCCNC(=O)[C@@H](O)C(C)C)c3nnc(C)n3c2c1
OUT: 0.60

IN: Supply recorded log10(IC50) for Cc1nnc2c(NCCCCNC(=O)C(C)(C)C)nc3ccc(NC(=O)C(C)C)cc3n12 here.
OUT: 1.81

IN: Retrieve log10(IC50) measured for Cc1nnc2c(NCCCCCC(=O)NCC(C)C)nc3ccccc3n12 and print it.
OUT: 1.59
